# Test Details: Affinity at sigma-1 site by inhibition of [3H](+)-pentazocine (PENT) binding in guinea pig brain
hey, just use Condition met if measured Ki is less than 2 nM, otherwise Condition not met

Completed entries (count: 8):
O=C(OCCN1CCN(c2ccccc2)CC1)C1(c2ccc(Cl)cc2)CCCC1 Condition not met
O=C(OCCN1CCN(c2ccccc2)CC1)C1(c2ccc(I)cc2)CCCC1 Condition not met
O=C(OCCCN1CCC(c2ccccc2)CC1)C1(c2ccc(Cl)cc2)CCCC1 Condition met
COc1ccc(C2(C(=O)OCCCN3CCC(c4ccccc4)CC3)CCCC2)cc1 Condition met
O=C(OCCN1CCC(c2ccccc2)CC1)C1(c2ccc(I)cc2)CCCC1 Condition met
O=C(OCCCN1CCC(c2ccccc2)CC1)C1(c2ccc(I)cc2)CCCC1 Condition met
O=C(OCCN1CCN(c2ccccc2)CC1)C1(c2ccc([N+](=O)[O-])cc2)CCCC1 Condition not met
O=C(OCCN1CCN(c2ccccc2)CC1)C1(c2ccccc2)CCCC1 Condition not met

-- ask Field: below-cutoff. Rule: recorded Ki strictly less than 2 nM. Subject: O=C(OCCCCN1CCC(c2ccccc2)CC1)C1(c2ccccc2)CCCC1
-- reply Condition met

-- ask Follow-up item: O=C(OCCCCCCN1CCC(c2ccccc2)CC1)C1(c2ccccc2)CCCC1
-- reply Condition met
